- studySystem: UCP1 (Homo sapiens, UniProt P25874)
- Construct: His8 (N, cleaved yes); Factor Xa protease cleavage site (N, cleaved yes); made in house; host or cells: Saccharomyces cerevisiae strain W303.1B
- Sequence (P25874 whole entry): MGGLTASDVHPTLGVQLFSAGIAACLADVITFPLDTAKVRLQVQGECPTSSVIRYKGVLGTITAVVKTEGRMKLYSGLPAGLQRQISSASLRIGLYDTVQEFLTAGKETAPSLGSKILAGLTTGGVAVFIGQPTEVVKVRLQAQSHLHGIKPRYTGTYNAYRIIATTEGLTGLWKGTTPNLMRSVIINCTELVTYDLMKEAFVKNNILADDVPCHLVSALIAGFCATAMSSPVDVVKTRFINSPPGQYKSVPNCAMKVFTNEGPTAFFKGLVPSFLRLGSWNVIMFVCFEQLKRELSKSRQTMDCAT
- measurementProtocol: Isothermal titration calorimetry of nucleotide binding
- Parameters: unit not given here
- experimentalParameters: Molar ratio (Nucleotide/UCP) 0.366087; representative isotherm, pH 6.0, 20 °C
parameter: isotherm data point (enthalpy change per injection)

>  <compound>
Nc1nc2c(ncn2[C@@H]2O[C@H](COP(=O)(O)OP(=O)(O)OP(=O)(O)O)[C@@H](O)[C@H]2O)c(=O)[nH]1 [GTP, guanosine triphosphate]

>  <studySystem>
UCP1 (Homo sapiens, UniProt P25874)

>  <numericValue>
-18.3445

$$$$
>  <compound>
Nc1ccn(C2OC(COP(=O)(O)OP(=O)(O)OP(=O)(O)O)C(O)C2O)c(=O)n1 (stereo not shown) [CTP]

>  <studySystem>
UCP1 (Homo sapiens, UniProt P25874)

>  <numericValue>
-20.6988

$$$$
>  <compound>
O=c1ccn([C@@H]2O[C@H](CO[P@@](=O)(O)O[P@@](=O)(O)OP(=O)(O)O)[C@@H](O)[C@H]2O)c(=O)[nH]1 (stereo in doubt) [UTP, uridine triphosphate]

>  <studySystem>
UCP1 (Homo sapiens, UniProt P25874)

>  <numericValue>
-21.4794

$$$$
>  <compound>
Cc1cn([C@H]2C[C@H](O)[C@@H](COP(=O)(O)OP(=O)(O)OP(=O)(O)O)O2)c(=O)[nH]c1=O [dTTP, thymidine triphosphate]

>  <studySystem>
UCP1 (Homo sapiens, UniProt P25874)

>  <numericValue>
-22.682

$$$$

---

- studySystem: UCP1 (Homo sapiens, UniProt P25874)
- Construct: His8 (N, cleaved yes); Factor Xa protease cleavage site (N, cleaved yes); made in house; host or cells: Saccharomyces cerevisiae strain W303.1B
- measurementProtocol: Isothermal titration calorimetry of nucleotide binding
- Parameters: unit not given here
- experimentalParameters: Molar ratio (Nucleotide/UCP) 0.242439; representative isotherm, pH 6.0, 20 °C
parameter: isotherm data point (enthalpy change per injection)

>  <compound>
Cc1cn([C@H]2C[C@H](O)[C@@H](COP(=O)(O)OP(=O)(O)OP(=O)(O)O)O2)c(=O)[nH]c1=O [dTTP, thymidine triphosphate]

>  <numericValue>
-21.2571

$$$$
>  <compound>
Nc1nc2c(ncn2[C@@H]2O[C@H](COP(=O)(O)OP(=O)(O)OP(=O)(O)O)[C@@H](O)[C@H]2O)c(=O)[nH]1 [GTP, guanosine triphosphate]

>  <numericValue>
-18.5029

$$$$
>  <compound>
O=c1ccn([C@@H]2O[C@H](CO[P@@](=O)(O)O[P@@](=O)(O)OP(=O)(O)O)[C@@H](O)[C@H]2O)c(=O)[nH]1 (stereo in doubt) [UTP, uridine triphosphate]

>  <numericValue>
-21.4037

$$$$
>  <compound>
Nc1ccn(C2OC(COP(=O)(O)OP(=O)(O)OP(=O)(O)O)C(O)C2O)c(=O)n1 (stereo not shown)

>  <numericValue>
-19.9722

$$$$

---

- studySystem: UCP1 (Homo sapiens, UniProt P25874)
- Construct: His8 (N, cleaved yes); Factor Xa protease cleavage site (N, cleaved yes); made in house; host or cells: Saccharomyces cerevisiae strain W303.1B
- measurementProtocol: Isothermal titration calorimetry of nucleotide binding;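 note: purified human UCP1 in cacodylate buffer with lauryl maltose neopentyl glycol and cardiolipin, titrated with nucleotides, isotherms fitted by one-site model yielding ΔH, Kd and stoichiometry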
- Set-up: unit not given here
- experimentalParameters: Molar ratio (Nucleotide/UCP) 1.00949; representative isotherm, pH 6.0, 20 °C
parameter: isotherm data point (enthalpy change per injection)

>  <compound>
Nc1nc2c(ncn2[C@@H]2O[C@H](COP(=O)(O)OP(=O)(O)OP(=O)(O)O)[C@@H](O)[C@H]2O)c(=O)[nH]1 [GTP, guanosine triphosphate]

>  <numericValue>
-7.389

$$$$
>  <compound>
Nc1ccn(C2OC(COP(=O)(O)OP(=O)(O)OP(=O)(O)O)C(O)C2O)c(=O)n1 (stereo not shown)

>  <numericValue>
-6.97

$$$$
>  <compound>
Cc1cn([C@H]2C[C@H](O)[C@@H](COP(=O)(O)OP(=O)(O)OP(=O)(O)O)O2)c(=O)[nH]c1=O [dTTP, thymidine triphosphate]

>  <numericValue>
-9.131

$$$$
>  <compound>
O=c1ccn([C@@H]2O[C@H](CO[P@@](=O)(O)O[P@@](=O)(O)OP(=O)(O)O)[C@@H](O)[C@H]2O)c(=O)[nH]1 (stereo in doubt) [UTP, uridine triphosphate]

>  <numericValue>
-6.6657

$$$$
